Experiment: Cytotoxicity against LPS stimulated mouse BV-2 cells assessed as cell survival at 10 uM by MTT assay
Type: toxicity, cell-based
Conditions: LPS-stimulated BV-2 cells, read-out: Activity
measurementLabel: viability at 10 µM (%)
Please state the figure in %; there is no need to write the unit.

Here's what some known entries look like.
>  <compound>
O=C(Cn1ccnc1)c1ccc2c(c1)OCO2

>  <observed>
97.9

$$$$
>  <compound>
CN(C)c1ccc(/C(Cn2ccnc2)=N/OC(=O)/C=C/c2ccccc2Cl)cc1

>  <observed>
105

$$$$
>  <compound>
CN(C)c1ccc(/C(Cn2ccnc2)=N/OC/C=C/c2ccccc2)cc1

>  <observed>
98.1

$$$$
>  <compound>
O=c1c(O)c(-c2ccc(O)c(O)c2)oc2cc(O)cc(O)c12 [QUERCETIN]

>  <observed>
91.3

$$$$

(Q) I would be grateful if you could share the reported viability at 10 µM for O=C(O/N=C(\Cn1ccnc1)c1ccc2c(c1)OCO2)C12CC3CC(CC(C3)C1)C2 .
(A) 113

(Q) Same for COc1cc(/C=C/C(=O)O/N=C(\Cn2ccnc2)c2ccc3c(c2)OCO3)ccc1O
(A) 89.4

(Q) And then CN(C)c1ccc(/C(Cn2ccnc2)=N/OC(=O)/C=C/c2ccccc2)cc1 , what is it?
(A) 92.8

(Q) One more compound: COc1ccc(/C=C/C(=O)O/N=C(\Cn2ccnc2)c2ccc3c(c2)OCO3)cc1
(A) 95.9

(Q) Now the same for C=C(C)CO/N=C(\Cn1ccnc1)c1ccc(N(C)C)cc1
(A) 98.6

(Q) And for FCCO/N=C(\Cn1ccnc1)c1ccc2c(c1)OCO2 ?
(A) 116

(Q) Now the compound FCCOCCOCCO/N=C(\Cn1ccnc1)c1ccc2c(c1)OCO2
(A) 99.9

----------
Test: Cytotoxicity against LPS stimulated mouse BV-2 cells assessed as cell survival at 10 uM by MTT assay
Type: toxicity, cell-based
Conditions: LPS-stimulated BV-2 cells, read-out: Activity
measurementLabel: viability at 10 µM (%)
Kindly provide the numeric value in % only, without the unit symbol.

// worked examples, viability at 10 µM included
>  <recordSmiles>
CN(C)c1ccc(/C(Cn2ccnc2)=N/OC(=O)/C=C/c2ccc3c(c2)OCO3)cc1

>  <viability at 10 µM / %>
96.7

$$$$
>  <recordSmiles>
C#CCO/N=C(\Cn1ccnc1)c1ccc2c(c1)OCO2

>  <viability at 10 µM / %>
95.9

$$$$
>  <recordSmiles>
O=C(/C=C/c1ccc2c(c1)OCO2)O/N=C(\Cn1ccnc1)c1ccc2c(c1)OCO2

>  <viability at 10 µM / %>
85.2

$$$$
>  <recordSmiles>
C#CCO/N=C(\Cn1ccnc1)c1ccc(N(C)C)cc1

>  <viability at 10 µM / %>
103

$$$$
>  <recordSmiles>
c1cn(CCc2ccc3c(c2)OCO3)cn1

>  <viability at 10 µM / %>
93.3

$$$$

Then this compound:
(Q) Dear colleague, I am looking for the recorded viability at 10 µM of the following compound: C#CCO/N=C(\Cn1cnc(CO)c1C)c1ccc2c(c1)OCO2
(A) 75.8

----------
Assay: Cytotoxicity against LPS stimulated mouse BV-2 cells assessed as cell survival at 10 uM by MTT assay
Format: toxicity, cell-based
Details: LPS-stimulated BV-2 cells, read-out: Activity
measurementLabel: viability at 10 µM (%)
Give a bare numeral; the unit % is implied.

Consider the worked cases shown below.
>  <compound>
COC(=O)CCCCCO/N=C(\Cn1ccnc1)c1ccc2c(c1)OCO2

>  <measurementLabel>
viability at 10 µM

>  <observed>
116

$$$$
>  <compound>
Cc1c(CO)ncn1CC(=O)c1ccc2c(c1)OCO2

>  <measurementLabel>
viability at 10 µM

>  <observed>
99.8

$$$$
>  <compound>
O=C(CCCC[C@@H]1CCSS1)O/N=C(\Cn1ccnc1)c1ccc2c(c1)OCO2

>  <measurementLabel>
viability at 10 µM

>  <observed>
97.5

$$$$
>  <compound>
CN(C)c1ccc(/C(Cn2ccnc2)=N/OC(=O)CCc2ccccc2)cc1

>  <measurementLabel>
viability at 10 µM

>  <observed>
92.5

$$$$
>  <compound>
C#CCO/N=C(\Cn1ccnc1)c1ccc(C(=O)OC)cc1

>  <measurementLabel>
viability at 10 µM

>  <observed>
105

$$$$

(Q) // lookup viability at 10 µM for O=C(CCCCCO/N=C(\Cn1ccnc1)c1ccc2c(c1)OCO2)NO
(A) 111

(Q) Request: COC(Cn1ccnc1)c1ccc2c(c1)OCO2 (racemic)
(A) 76.1

----------
Test system: BV-2
Experiment: Anti-neuroinflammatory activity against LPS-stimulated mouse BV-2 cells assessed as inhibition of NO production at 10 uM
Type: functional
Parameters: scale not given: the % may be the effect or the level left
measurementLabel: Activity (%)
API: value field is a number in %; no unit string.

>  <compound>
FCCO/N=C(\Cn1ccnc1)c1ccc2c(c1)OCO2

>  <Activity, %>
99.4

$$$$
>  <compound>
C#CCO/N=C(/Cn1ccnc1)c1ccc2c(c1)OCO2

>  <Activity, %>
25.5

$$$$
>  <compound>
CN(C)c1ccc(/C(Cn2ccnc2)=N/OC(=O)CCc2ccccc2)cc1

>  <Activity, %>
31.4

$$$$
>  <compound>
c1cn(CCc2ccc3c(c2)OCO3)cn1

>  <Activity, %>
47.9

$$$$
>  <compound>
FCCOCCOCCO/N=C(\Cn1ccnc1)c1ccc2c(c1)OCO2

>  <Activity, %>
53.9

$$$$
>  <compound>
Cc1c(CO)ncn1CC(=O)c1ccc2c(c1)OCO2

>  <Activity, %>
37.7

$$$$
>  <compound>
C#CCO/N=C(\Cn1ccnc1)c1ccc(C(=O)OCC)cc1

>  <Activity, %>
73.5

$$$$
>  <compound>
CN(C)c1ccc(/C(Cn2ccnc2)=N/OCc2ccccc2)cc1

>  <Activity, %>
48.7

$$$$
>  <compound>
COC(=O)CCCCCO/N=C(\Cn1ccnc1)c1ccc2c(c1)OCO2

>  <Activity, %>
76

$$$$
>  <compound>
C#CCO/N=C(\Cn1ccnc1)c1ccc(N(C)C)cc1

>  <Activity, %>
49.6

$$$$

Please examine the following record next.
(Q) Name the recorded Activity for C#CCO/N=C(\Cn1ccnc1)c1ccc(C(=O)NO)cc1 .
(A) 70.5

----------
System: BV-2
Test: Anti-neuroinflammatory activity against LPS-stimulated mouse BV-2 cells assessed as inhibition of NO production at 1 uM
Assay type: functional
Design: scale not given: the % may be the effect or the level left
Binary call on Activity with cut-off 30%: strictly below means Condition met, and equality or higher means Condition not met.

Example entries and their recorded answers appear below.
>  <recordSmiles>
C#CCO/N=C(\Cn1ccnc1)c1ccc(C(=O)NO)cc1

>  <classAssignment>
Condition not met

$$$$
>  <recordSmiles>
C#CCO/N=C(\Cn1cnc(CO)c1C)c1ccc2c(c1)OCO2

>  <classAssignment>
Condition met

$$$$
>  <recordSmiles>
FCCOCCOCCO/N=C(\Cn1ccnc1)c1ccc2c(c1)OCO2

>  <classAssignment>
Condition met

$$$$
>  <recordSmiles>
Cc1c(CO)ncn1CC(=O)c1ccc2c(c1)OCO2

>  <classAssignment>
Condition met

$$$$
>  <recordSmiles>
O=C(CCCCCO/N=C(\Cn1ccnc1)c1ccc2c(c1)OCO2)NO

>  <classAssignment>
Condition not met

$$$$

Now look at this entry.
(Q) is_below(Activity, 30%) for O=C(/C=C/c1ccc2c(c1)OCO2)O/N=C(\Cn1ccnc1)c1ccc2c(c1)OCO2 ?
(A) Condition not met

----------
Tested on: BV-2
Test: Anti-neuroinflammatory activity against LPS-stimulated mouse BV-2 cells assessed as inhibition of NO production at 10 uM
Type: functional
Parameters: scale not given: the % may be the effect or the level left
Cut-off 50% on Activity, inclusive. At or above means 1; below means 0.

>  <molecule>
OC(Cn1ccnc1)c1ccc2c(c1)OCO2 (racemic)

>  <assaySystem>
BV-2

>  <classAssignment>
1

$$$$

(Q) Check the entry C=C(C)CO/N=C(\Cn1ccnc1)c1ccc(N(C)C)cc1 : does Activity equal or exceed 50%?
(A) 0

(Q) Would you mind doing O=C(O/N=C(\Cn1ccnc1)c1ccc2c(c1)OCO2)C12CC3CC(CC(C3)C1)C2 as well?
(A) 1

(Q) Consider next the molecule O=C(/C=C/c1ccc2c(c1)OCO2)O/N=C(\Cn1ccnc1)c1ccc2c(c1)OCO2 in the same way.
(A) 1

(Q) Also, CN(C)c1ccc(/C(Cn2ccnc2)=N/OC/C=C/c2ccccc2)cc1 please.
(A) 0

----------
System: BV-2
Assay: Anti-neuroinflammatory activity against LPS-stimulated mouse BV-2 cells assessed as inhibition of NO production at 10 uM
Type: functional
Set-up: scale not given: the % may be the effect or the level left
measurementLabel: Activity (%)
Give the value in % but do not write % after it.

>  <recordSmiles>
C#CCO/N=C(\Cn1ccnc1)c1ccc(C(=O)OC)cc1

>  <Activity [%]>
72.7

$$$$
>  <recordSmiles>
COc1cc(/C=C/C(=O)O/N=C(\Cn2ccnc2)c2ccc3c(c2)OCO3)ccc1O

>  <Activity [%]>
67.6

$$$$

(Q) Entry under review: FCCCO/N=C(\Cn1ccnc1)c1ccc2c(c1)OCO2 . Reported Activity?
(A) 65

(Q) Please answer likewise for CN(C)c1ccc(/C(Cn2ccnc2)=N/OC(=O)/C=C/c2ccccc2Cl)cc1
(A) 65.8

(Q) And the next one, CN(C)c1ccc(/C(Cn2ccnc2)=N/OC(=O)/C=C/c2ccc(Cl)cc2)cc1 ?
(A) 54.1

(Q) One more compound: O=C(CCCCCO/N=C(\Cn1ccnc1)c1ccc2c(c1)OCO2)NO
(A) 82.9
